Attribution: patent US10294234B2

test: in vivo; conditions: male, beagle, dog, in vivo, iv
So I've got a bunch of compounds here, and I need their Vd values.
Your answer should be a plain number; it is taken to be in L/kg.

Task: // returns reported Vd for input COC(=O)N[C@H](C(=O)N[C@@H](Cc1ccc(C#Cc2cnc(N3CC4CCC(C3)N4C3COC3)nc2)cc1)[C@@H](O)CN(Cc1c(F)cc(-c2ccn(C(F)F)n2)cc1F)NC(=O)[C@@H](NC(=O)OC)C(C)(C)C(F)(F)F)C(C)(C)C(F)(F)F
Output: 3.12

Task: Another compound to look at: COC(=O)N[C@H](C(=O)N[C@@H](Cc1ccc(C#Cc2ccc(N3CC4CCC(C3)N4C3COC3)nc2)cc1)[C@@H](O)CN(Cc1c(F)cc(-c2ccn(C3CC3)n2)cc1F)NC(=O)[C@@H](NC(=O)OC)C(C)(C)C(F)(F)F)C(C)(C)C(F)(F)F
Output: 4.35

Task: Another compound to look at: COC(=O)N[C@H](C(=O)N[C@@H](Cc1ccc(C#Cc2ccc(N3CC4CCC(C3)N4C3COC3)nc2)cc1)[C@@H](O)CN(Cc1ccc(-c2cnn(C(F)F)c2)cc1)NC(=O)[C@@H](NC(=O)OC)C(C)(C)C(F)(F)F)C(C)(C)C(F)(F)F
Output: 2.4

Task: Another compound to look at: CC(C)CN(C[C@@H](O)[C@H](Cc1ccccc1)NC(=O)O[C@H]1CO[C@H]2OCC[C@H]21)S(=O)(=O)c1ccc(N)cc1 [darunavir, reference compound]
Output: 0.87

###

So I've got a bunch of compounds here, and I need their Rat. Pred. Cl. values.
settings: rat, microsomes
Your answer should be a plain number; it is taken to be in L/H/kg.

Task: // returns reported Rat. Pred. Cl. for input COC(=O)N[C@H](C(=O)NN(Cc1c(F)cc(-c2ccn(CC(F)F)n2)cc1F)C[C@H](O)[C@H](Cc1ccc(C#Cc2cnc(N3CC4CCC(C3)N4C3COC3)nc2)cc1)NC(=O)[C@@H](NC(=O)OC)C(C)(C)C(F)(F)F)C(C)(C)C [Example 7]
Output: 0.21

Task: Another compound to look at: CC(C)([C@H](NC(=O)OC1COC1)C(=O)N[C@@H](Cc1ccc(C#Cc2cnc(N3CC4CCC(C3)N4C3COC3)nc2)cc1)[C@@H](O)CN(Cc1c(F)cc(-c2ccn(C(F)F)n2)cc1F)NC(=O)[C@@H](NC(=O)OC1COC1)C(C)(C)C(F)(F)F)C(F)(F)F [Example 220]
Output: 0.34

###

experiment: in vivo; settings: male beagle dogs, IV infusion over 30 minutes, 0.5 or 1.0 mg/kg
readout_name: DOG IV T1/2 (h)
Your answer should be a plain number; it is taken to be in h.

Task: // returns reported DOG IV T1/2 for input COC(=O)N[C@H](C(=O)N[C@@H](Cc1ccccc1)[C@@H](O)CN(Cc1ccc(-c2ccccn2)cc1)NC(=O)[C@@H](NC(=O)OC)C(C)(C)C)C(C)(C)C [atazanavir, reference compound]
Output: 1.3

Task: Another molecule to look at: COC(=O)N[C@H](C(=O)N[C@@H](Cc1ccc(C#Cc2cnc(N3CC4CCC(C3)N4C3COC3)nc2)cc1)[C@@H](O)CN(Cc1c(F)cc(-c2ccn(C(F)F)n2)cc1F)NC(=O)[C@@H](NC(=O)OC)C(C)(C)C(F)(F)F)C(C)(C)C(F)(F)F
Output: 13.4

Task: Another molecule to look at: COC(=O)N[C@H](C(=O)N[C@@H](Cc1ccc(C#Cc2ccc(N3CC4CCC(C3)N4C3COC3)nc2)cc1)[C@@H](O)CN(Cc1c(F)cc(-c2ccn(C3CC3)n2)cc1F)NC(=O)[C@@H](NC(=O)OC)C(C)(C)C(F)(F)F)C(C)(C)C(F)(F)F
Output: 7.62
